The entries below come with measured EC50 values attached.
runDescription: Luminescence Cell-Based Dose Response HTS to Identify Inhibitors of 5'UTR Stem-Loop Driven Prion Protein mRNA Translation in H4 Neuroglioblastoma Cells. [Related pubchem assays: 1827 (Project Summary), 1813 (Primary HTS)]
Type: functional
The source made the active and inactive calls. Rule as the data show it: actives have a measured EC50 and inactives only a lower limit.

# structureSmiles, EC50
records = [
    ("COc1ccc(/C=C2\\CN(Cc3ccccc3)C/C(=C\\c3ccc(OC)c(O)c3)C2=O)cc1O", "> 120 µM (not active)"),
    ("CCN(CC)c1ccc2nc3ccccc3[n+](CC)c2c1", "25.9 µM (active)"),
    ("O=C(CSc1nnc(-c2ccccc2)o1)Nc1ccccc1F", "1.07 µM (active)"),
    ("O=C(Nc1ccccc1)Nc1cc(OCC(F)(F)F)cc(OCC(F)(F)F)c1", "7.18 µM (active)"),
    ("Cc1ccc(N/C=C/C(=O)c2cccs2)cc1", "9.4 µM (active)"),
    ("COc1ccccc1NS(=O)(=O)c1cccc(C(=O)N/N=C/c2cn(-c3ccccc3)nc2-c2ccccc2)c1", "> 120 µM (not active)"),
]
